Documented koff across a set of binders
Target: T1, hu N(A2-B2)A-avi-His (human, biotin on the avi tag where used biotinylated)
T1 construct: chimeric soluble antigen; also called hu N(A2-B2)A-avi-His B; human CEA (A2 domain)
T1 chain: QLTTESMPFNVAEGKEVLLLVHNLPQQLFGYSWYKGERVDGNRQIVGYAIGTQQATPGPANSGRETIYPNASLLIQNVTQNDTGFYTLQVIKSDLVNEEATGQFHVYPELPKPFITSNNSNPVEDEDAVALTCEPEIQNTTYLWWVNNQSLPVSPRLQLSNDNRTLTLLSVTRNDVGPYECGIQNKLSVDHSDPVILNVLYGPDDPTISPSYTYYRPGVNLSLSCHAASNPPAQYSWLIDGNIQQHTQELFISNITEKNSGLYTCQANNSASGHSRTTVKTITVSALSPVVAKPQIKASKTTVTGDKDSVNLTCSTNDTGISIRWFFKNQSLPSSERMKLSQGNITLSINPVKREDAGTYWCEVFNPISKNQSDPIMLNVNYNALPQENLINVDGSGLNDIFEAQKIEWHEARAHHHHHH
Assay: SPR (ProteOn XPR36), purified Fab, biotinylated antigen on NLC chip

{"columns": ["Binder", "Endpoint Unit", "koff"],
 "data": [
  ["P001.177 Fab (Fab, V domains shown, Fab from E. coli (supernatant or IMAC-purified); Flag tag; also called CEA (P001.177)) VH: EVQLLESGGGLVQPGGSLRLSCAASGFYFTDYYMNWVRQAPGKGLEWLGFISNKANAYTTEYSASVKGRFTISRDKSKNTLYLQMNSLRAEDTATYYCTRDRGLRFYFDYWGQGTTVTVSS VL: EIVLTQSPATLSLSPGERATLSCRASSSVTYIHWYQQKPGQAPRSWIYATSNLASGIPARFSGSGSGTDFTLTISSLEPEDFAVYYCQHWSSKPPTFGQGTKLEIK", "s⁻¹", "7.85e-05"],
  ["P005.103 Fab (Fab, V domains shown, Fab from E. coli (supernatant or IMAC-purified); Flag tag; also called CEA (P005.103)) VH: EVQLLESGGGLVQPGGSLRLSCAASGFTFTDYYMNWVRQAPGKGLEWLGFIGNKANAYTTEYSASVKGRFTISRDKSKNTLYLQMNSLRAEDTATYYCTRDRGIRFYFDYWGQGTTVTVSS VL: EIVLTQSPATLSLSPGERATLSCRASSSVTYIHWYQQKPGQAPRSWIYATSNLASGIPARFSGSGSGTDFTLTISSLEPEDFAVYYCQHWSSISPTFGQGTKLEIK", "s⁻¹", "4.99e-05"],
  ["P005.097 Fab (Fab, V domains shown, Fab from E. coli (supernatant or IMAC-purified); Flag tag; also called CEA (P005.097)) VH: EVQLLESGGGLVQPGGSLRLSCAASGFTFTDYYMNWVRQAPGKGLEWLGFIGNKANAYTTEYSASVKGRFTISRDKSKNTLYLQMNSLRAEDTATYYCTRDRGLRFSFDYWGQGTTVTVSS VL: EIVLTQSPATLSLSPGERATLSCRASSSVTYIHWYQQKPGQAPRSWIYATSNLASGIPARFSGSGSGTDFTLTISSLEPEDFAVYYCQHWSSQPPTFGQGTKLEIK", "s⁻¹", "8.54e-05"],
  ["P002.139 Fab (Fab, V domains shown, Fab from E. coli (supernatant or IMAC-purified); Flag tag; also called CEA (P002.139)) VH: EVQLLESGGGLVQPGGSLRLSCAASGFYFTDYAMNWVRQAPGKGLEWLGVISNKANAYTTEYSASVKGRFTISRDKSKNTLYLQMNSLRAEDTATYYCTRDRGLRFYFDYWGQGTTVTVSS VL: EIVLTQSPATLSLSPGERATLSCHASSSVTYIHWYQQKPGQAPRSWIYATSNLASGIPARFSGSGSGTDFTLTISSLEPEDFAVYYCQHWSSKPPTFGQGTKLEIK", "s⁻¹", "6.53e-05"],
  ["P005.102 Fab (Fab, V domains shown, Fab from E. coli (supernatant or IMAC-purified); Flag tag; also called CEA (P005.102)) VH: EVQLLESGGGLVQPGGSLRLSCAASGFTFTDYYMNWVRQAPGKGLEWLGFIGNKANAYTTEYSASVKGRFTISRDKSKNTLYLQMNSLRAEDTATYYCTRDRGIRFQFDYWGQGTTVTVSS VL: EIVLTQSPATLSLSPGERATLSCRASSSVTYIHWYQQKPGQAPRSWIYATSNLASGIPARFSGSGSGTDFTLTISSLEPEDFAVYYCQHWSSKSPTFGQGTKLEIK", "s⁻¹", "3.92e-05"]
]}
